The entries below come with measured Population Hoechst High Intensity Objects (%) values attached.
test system: U2OS; test: Multiplex assay against U2OS; assay type: toxicity, cell-based; settings: human, 24 h, 1 µM, compound concentration 1 uM, replicate 2
I only need the number, in %, no unit after it.

Some solved cases for reference:
CC(/C=C1\SC(=S)N(CCCC(=O)Nc2ccc(C(=O)O)c(O)c2)C1=O)=C\c1ccccc1 : 6
Cc1ccc(S(=O)(=O)NC2c3ccccc3Oc3ccccc32)cc1 : 7
CCOc1ccn(-c2ccc(F)cc2)c(=O)c1C(=O)Nc1ccc(Oc2ccnc(N)c2Cl)c(F)c1 : 10
CN1C(=O)[C@@H](NC(=O)c2cc3ccccc3[nH]2)N=C(c2ccccc2)c2ccccc21 [DEVAZEPIDE] : 1

The molecule identified as "COc1cc(Nc2ccnc3ccc(Br)cc23)cc(OC)c1OC" registered its Population Hoechst High Intensity Objects (%) at 16
